I'd be grateful if you could share measured fold induction at 2830 µM for these entries.
system: Reconstructed human epidermis (RHE) tissues; experiment: RT-qPCR gene expression of K10, K19, filaggrin, K4 and K13 in reconstructed human epidermis (RHE) cultures; format: cell-based; conditions: 72 h, 2.83 mM in OD/10% DMSO, 6 μl, read-out: K13 Fold Change vs Untreated/OD controls (upregulation)
Please state the value as a number alone, without comment.

Ask: Look at this compound and give its reported fold induction at 2830 µM. CCOC(=O)c1ccc(C#Cc2ccc3c(c2)C(C)(C)CCS3)nc1
Result: 12

Ask: For CCOC(=O)c1ccc(C#Cc2ccc3c(c2)C(C)(C)C[C@H](OC(=O)c2cccnc2)S3)nc1 , what is its reported fold induction at 2830 µM?
Result: 5

Ask: What fold induction at 2830 µM value was documented for this compound, CCOC(=O)c1ccc(C#Cc2ccc3c(c2)C(C)(C)CC(OC(=O)C2CCOCC2)S3)nc1 (stereo not shown) ?
Result: 10

Ask: Which fold induction at 2830 µM value belongs to CC1(C)CC(O)Sc2ccc(C#Cc3ccc(C(=O)O)cn3)cc21 (stereo not shown) ?
Result: 11

Ask: I am curious: what fold induction at 2830 µM value has been reported for CCOC(=O)c1ccc(C#Cc2ccc3c(c2)C(C)(C)CC(OC(=O)C(C)C)S3)nc1 (stereo not shown) ?
Result: 6

Ask: fold induction at 2830 µM lookup needed for CCOC(=O)c1ccc(C#Cc2ccc3c(c2)C(C)(C)C[C@@H](OC(=O)c2cccnc2)S3)nc1 , thanks.
Result: 7

Ask: What fold induction at 2830 µM value was documented for this compound, CCOC(=O)c1ccc(C#Cc2ccc3c(c2)C(C)(C)CC(OC(=O)[C@@H](N)C(C)C)S3)nc1 (stereo partly shown) ?
Result: 13

Ask: # get_value(readout='fold induction at 2830 µM', item= CCOC(=O)c1ccc(C#Cc2ccc3c(c2)C(C)(C)CC(OC(=O)CCCCC(=O)OC)S3)nc1 (stereo not shown) )
Result: 19

Ask: Which fold induction at 2830 µM reading was recorded for the compound CCOC(=O)c1ccc(C#Cc2ccc3c(c2)C(C)(C)C[C@H](OC(=O)c2ccccc2)S3)nc1 ?
Result: 7

Ask: So what's the measured fold induction at 2830 µM for this one? CCCC(=O)OC1CC(C)(C)c2cc(C#Cc3ccc(C(=O)OCC)cn3)ccc2S1 (stereo not shown)
Result: 9

Ask: For CC1(C)CC(=O)Sc2ccc(C#Cc3ccc(C(=O)O)cn3)cc21 , what is its reported fold induction at 2830 µM?
Result: 20

Ask: Which fold induction at 2830 µM value is on record for CCOC(=O)c1ccc(C#Cc2ccc3c(c2)C(C)(C)CC(OC(=O)c2ccccc2O)S3)nc1 (stereo not shown) ?
Result: 17

Ask: Endpoint output: fold induction at 2830 µM of CCOC(=O)c1ccc(C#Cc2ccc3c(c2)C(C)(C)CC(OC(=O)c2cccnc2)S3)nc1 (stereo not shown) . Value?
Result: 8

Ask: Fill blank: measured fold induction at 2830 µM of the compound CCOC(=O)c1ccc(C#Cc2ccc3c(c2)C(C)(C)CC(OC(=O)COC)S3)nc1 (stereo not shown) is ____.
Result: 9

Ask: Name the recorded fold induction at 2830 µM for CCOC(=O)c1ccc(C#Cc2ccc3c(c2)C(C)(C)CC(OC(=O)CC)S3)nc1 (stereo not shown) .
Result: 23

Ask: What fold induction at 2830 µM value was documented for this compound, CCOC(=O)c1ccc(C#Cc2ccc3c(c2)C(C)(C)C[C@@H](OC(=O)c2ccccc2)S3)nc1 ?
Result: 7
